measurement protocol: self-splicing fitness, log relative to wild type (ln ratio); higher = more splicing; Tetrahymena group I intron in knt gene, E. coli kanamycin selection, DiMSum; sequences stand for … in CUCUCU…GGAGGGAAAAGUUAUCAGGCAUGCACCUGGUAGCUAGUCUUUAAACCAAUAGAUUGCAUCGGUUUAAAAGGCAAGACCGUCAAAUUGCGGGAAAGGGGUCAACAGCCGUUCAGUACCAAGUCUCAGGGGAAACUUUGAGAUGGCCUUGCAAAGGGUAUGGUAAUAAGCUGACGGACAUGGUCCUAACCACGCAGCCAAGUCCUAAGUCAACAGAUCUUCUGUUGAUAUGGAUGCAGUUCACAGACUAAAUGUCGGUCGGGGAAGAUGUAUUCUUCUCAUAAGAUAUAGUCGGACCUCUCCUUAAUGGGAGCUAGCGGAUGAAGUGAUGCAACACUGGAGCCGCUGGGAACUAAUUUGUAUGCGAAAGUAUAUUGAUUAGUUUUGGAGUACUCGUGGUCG;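 further: selection with 25 µg/mL kanamycin versus none on LB agar overnight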
stated conditions: 37 °C
Below, each entry is listed with its recorded self-splicing fitness (ln).

- sequence record: "GGUAAGCAAUAUUACGGUGC"
  self-splicing fitness (ln): -0.983
- sequence record: "GUUCAGCAAUAUUACGCUGU"
  self-splicing fitness (ln): -1.65
- sequence record: "UUAGAGCAAUAUUACGGGUG"
  self-splicing fitness (ln): -0.89
- sequence record: "GGUCAGCAAUAUUACGUUAC"
  self-splicing fitness (ln): -0.483
- sequence record: "CGAGAGCAAUAUUACGGCGC"
  self-splicing fitness (ln): -1.62
- sequence record: "AAUAAGCAAUAUUACGGAAA"
  self-splicing fitness (ln): -2.03
- sequence record: "GCUUAGCAAUAUUACGGCUU"
  self-splicing fitness (ln): -0.586
- sequence record: "CCUGAGCAAUAUUACGCGGC"
  self-splicing fitness (ln): -2.55
- sequence record: "AUUAAGCAAUAUUACGCGAU"
  self-splicing fitness (ln): -2.63
- sequence record: "AGACAGCAAUAUUACGACAG"
  self-splicing fitness (ln): -0.41
- sequence record: "UUCAAGCAAUAUUACGCGCA"
  self-splicing fitness (ln): 0.264
- sequence record: "GACAAGCAAUAUUACGUUUG"
  self-splicing fitness (ln): -2.64
- sequence record: "GUAAAGCAAUAUUACGAUAC"
  self-splicing fitness (ln): -0.547
- sequence record: "CUAGAGCAAUAUUACGUAGU"
  self-splicing fitness (ln): -1.94
- sequence record: "CCACAGCAAUAUUACGUGGC"
  self-splicing fitness (ln): -2.86
- sequence record: "UAGGAGCAAUAUUACGGGGU"
  self-splicing fitness (ln): -2.12
- sequence record: "AUACAGCAAUAUUACGCCCC"
  self-splicing fitness (ln): 0.0702
- sequence record: "GUGCAGCAAUAUUACGGGUG"
  self-splicing fitness (ln): -1.87
- sequence record: "CCGCAGCAAUAUUACGGGAU"
  self-splicing fitness (ln): -1.82
- sequence record: "GCCCAGCAAUAUUACGUCUC"
  self-splicing fitness (ln): -0.175
- sequence record: "CAUGAGCAAUAUUACGAACU"
  self-splicing fitness (ln): -2.95
- sequence record: "CUCCAGCAAUAUUACGUCGU"
  self-splicing fitness (ln): -2.72
- sequence record: "AAGCAGCAAUAUUACGAUCC"
  self-splicing fitness (ln): 0.0481
- sequence record: "GCGAAGCAAUAUUACGUGGC"
  self-splicing fitness (ln): -2.35
